system.under.test: Rat α3β2 nAChR (Rattus norvegicus, UniProt P04757+P12390)
Construct: expressed in transfected cells; host or cells: Xenopus laevis oocytes, cRNA injected
Sequence (P04757 26-499 limits assumed): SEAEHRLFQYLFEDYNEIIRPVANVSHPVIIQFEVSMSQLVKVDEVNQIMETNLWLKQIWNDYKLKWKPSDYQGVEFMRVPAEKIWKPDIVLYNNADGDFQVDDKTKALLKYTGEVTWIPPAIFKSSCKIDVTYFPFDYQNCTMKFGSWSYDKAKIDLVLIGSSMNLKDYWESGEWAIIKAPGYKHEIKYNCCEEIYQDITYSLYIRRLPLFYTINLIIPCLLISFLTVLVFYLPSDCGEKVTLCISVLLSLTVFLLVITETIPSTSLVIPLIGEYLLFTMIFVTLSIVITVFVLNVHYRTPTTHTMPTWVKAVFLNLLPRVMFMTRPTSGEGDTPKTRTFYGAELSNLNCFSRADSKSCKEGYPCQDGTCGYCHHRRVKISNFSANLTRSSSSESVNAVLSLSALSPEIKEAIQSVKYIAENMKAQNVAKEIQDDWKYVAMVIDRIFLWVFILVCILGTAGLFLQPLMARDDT
Sequence (P12390 25-500 limits assumed): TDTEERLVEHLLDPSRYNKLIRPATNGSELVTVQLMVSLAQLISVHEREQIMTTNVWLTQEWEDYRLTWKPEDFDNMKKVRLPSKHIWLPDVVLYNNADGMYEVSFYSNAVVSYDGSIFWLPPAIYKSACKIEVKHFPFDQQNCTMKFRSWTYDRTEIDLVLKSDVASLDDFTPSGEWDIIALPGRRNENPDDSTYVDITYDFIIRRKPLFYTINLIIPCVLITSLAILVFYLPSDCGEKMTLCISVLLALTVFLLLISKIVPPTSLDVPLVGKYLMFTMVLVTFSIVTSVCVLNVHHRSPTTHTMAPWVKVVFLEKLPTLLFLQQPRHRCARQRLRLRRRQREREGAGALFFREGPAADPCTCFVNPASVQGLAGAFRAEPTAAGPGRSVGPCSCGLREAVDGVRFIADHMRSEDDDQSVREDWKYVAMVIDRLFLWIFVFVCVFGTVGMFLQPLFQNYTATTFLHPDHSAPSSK
assay.overview: cell-based
Type: cell-based
Where a SMILES comes first, the peptide text is derived from it. Bridges are numbered along the chain shown (N, C = ends).
measurement.kind: Ratio IC50 α3β2/IC50 α6/α3β2β3

>>> data_value("CC(C)C[C@@H]1NC(=O)[C@H](CC(N)=O)NC(=O)[C@H](CO)NC(=O)[C@H](C)NC(=O)[C@H](CCC(=O)O)NC(=O)[C@H](CC(C)C)NC(=O)[C@H](Cc2c[nH]cn2)NC(=O)[C@@H]2CSSC[C@H](NC(=O)CN)C(=O)N[C@@H](CSSC[C@@H](C(N)=O)NC1=O)C(=O)N[C@@H](CO)C(=O)N[C@@H](CC(N)=O)C(=O)N1CCC[C@H]1C(=O)N[C@@H](C(C)C)C(=O)N2 [MII[H12A]] (H-GCCSNPVCHLEASNLC-NH2; disulfide 2-8, 3-16)")
7.72
>>> data_value("CC(C)C[C@@H]1NC(=O)[C@H](CC(N)=O)NC(=O)[C@H](CO)NC(=O)[C@H](Cc2c[nH]cn2)NC(=O)[C@H](CCC(=O)O)NC(=O)[C@H](CC(C)C)NC(=O)[C@H](Cc2c[nH]cn2)NC(=O)[C@@H]2CSSC[C@H](NC(=O)CN)C(=O)N[C@@H](CSSC[C@@H](C(N)=O)NC1=O)C(=O)N[C@@H](CO)C(=O)N[C@@H](C)C(=O)N1CCC[C@H]1C(=O)N[C@@H](C(C)C)C(=O)N2 [MII[N5A]] (H-GCCSAPVCHLEHSNLC-NH2; disulfide 2-8, 3-16)")
">12.6"
